Measured values drawn from ChEMBL document CHEMBL3217519 for this set.

System: NCI-H661
Method: Antiproliferative activity against human NCI-H661 cells assessed as inhibition of cell viability after 3 days by XTT assay in presence of beta-glucuronidase
Type: functional, cell-based
Study Conditions: NCI-H661, 72 h
pIC50: −log10 of the molar value.
Measurement Kind: pIC50

[
  {
    "Mol Smiles": "COc1cccc2c1C(=O)c1c(O)c3c(c(O)c1C2=O)C[C@@](O)(C(=O)CO)C[C@@H]3O[C@H]1C[C@H](NC(=O)OCc2ccc(NC(=O)OCc3ccc(O[C@@H]4O[C@H](C(=O)O)[C@@H](O)[C@H](O)[C@H]4O)c([N+](=O)[O-])c3)c(COC(=O)N[C@H]3C[C@H](O[C@H]4C[C@](O)(C(=O)CO)Cc5c(O)c6c(c(O)c54)C(=O)c4c(OC)cccc4C6=O)O[C@@H](C)[C@H]3O)c2)[C@H](O)[C@H](C)O1",
    "pIC50": 6.96
  },
  {
    "Mol Smiles": "COc1cccc2c1C(=O)c1c(O)c3c(c(O)c1C2=O)C[C@@](O)(C(=O)CO)C[C@@H]3O[C@H]1C[C@H](N)[C@H](O)[C@H](C)O1",
    "pIC50": 6.60
  },
  {
    "Mol Smiles": "COc1cccc2c1C(=O)c1c(O)c3c(c(O)c1C2=O)C[C@@](O)(C(=O)CO)C[C@@H]3O[C@H]1C[C@H](NC(=O)OCc2ccc(O[C@@H]3O[C@H](C(=O)O)[C@@H](O)[C@H](O)[C@H]3O)c([N+](=O)[O-])c2)[C@H](O)[C@H](C)O1",
    "pIC50": 6.55
  }
]
